experiment: Liver Microsome Stability Assay (monkey); conditions: monkey liver microsomes, with NADPH, 1.0 uM compound
Under this convention, T denotes Liver Microsome Stability (Multiple Species): Monkey - % Remaining after 30 min w/NADPH strictly below 0.4% and F denotes Liver Microsome Stability (Multiple Species): Monkey - % Remaining after 30 min w/NADPH at or above 0.4%.

Solved entries:
# compound, category
measured = [
    ("O=C(Nc1nc([C@H]2CCCN2c2ccc(OCCO)cc2)cs1)c1cccn1Cc1ccnc(F)c1", "F"),
    ("CC(=O)N1CCC(c2ccc(N3CCC[C@@H]3c3csc(NC(=O)c4cccn4Cc4ccncc4)n3)cc2)CC1", "T"),
    ("O=C(Nc1nc(/C=C/C2CCc3ccccc3N2)cs1)c1cccn1Cc1ccncc1 (stereo not shown)", "F"),
]

Lab log: compare recorded Liver Microsome Stability (Multiple Species): Monkey - % Remaining after 30 min w/NADPH with 0.4%; is it strictly lower for CC(=O)N1CCC(Oc2ccc(N3CCC[C@@H]3c3csc(NC(=O)c4cccn4Cc4ccnc(F)c4)n3)c(C#N)c2)CC1 ?
T

Next up: O=C(Nc1nc([C@H]2CCCN2c2ccc(OC3CCNCC3)cc2)cs1)c1cccn1Cc1ccncc1
F

Next up: O=C(Nc1nc([C@H]2CCCN2c2ccccc2)cs1)c1cccn1Cc1ccccc1
F
